Just for reference, the supplement of paper PMC9233669 is where these values come from.

System: biotinyl-Val-oxazolone
Assay: self-aminoacylation, catalytic enhancement (BVO) (fold over background); higher = more active; k-Seq, kA / k0A0; sequences stand for … in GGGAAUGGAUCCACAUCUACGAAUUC…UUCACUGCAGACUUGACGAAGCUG
This sample holds only a part of the variants without activity.
measuredParameter: self-aminoacylation
Reply with just the number.

Below, each entry is followed by its recorded self-aminoacylation result.
seq="AUUACCCUGGUCAUCGAGUCG [Fam2.1 aminoacylation ribozyme variant]" subjectoftest=biotinyl-Val-oxazolone resultnumber=0.976
seq="AUUCAUCUUGGUCAUCGGGUG [Fam2.2 aminoacylation ribozyme variant]" subjectoftest=biotinyl-Val-oxazolone resultnumber=4.56
seq="GUUACCCUGCUCAUCGAGUGA [Fam2.1 aminoacylation ribozyme variant]" subjectoftest=biotinyl-Val-oxazolone resultnumber=1.79
seq="AAGUUUGCUAAUAGUGGCAUG [Fam3.1 aminoacylation ribozyme variant]" subjectoftest=biotinyl-Val-oxazolone resultnumber=0.772
seq="CUACUUCAAACAUUCGGUCUC [Fam1A.1 aminoacylation ribozyme variant]" subjectoftest=biotinyl-Val-oxazolone resultnumber=0.975

Input AUUCCCCUGGUCAUCGAGUAA [Fam2.1 aminoacylation ribozyme variant] . Output self-aminoacylation: 1.7

Input GAGUCUGCUAAUAGUCGCAAG [Fam3.1 aminoacylation ribozyme variant] . Output self-aminoacylation: 1.63

Input AAGUUUGCGACUAGUCGCAAG [Fam3.1 aminoacylation ribozyme variant] . Output self-aminoacylation: 1.34

Input GUUACCCUGGUGAUCGAGUGA [Fam2.1 aminoacylation ribozyme variant] . Output self-aminoacylation: 3.33

Input AUUACCCAUGUCAUCGAGUGA [Fam2.1 aminoacylation ribozyme variant] . Output self-aminoacylation: 4.43

Input CCACACCUCAAGCAAUCGGUU [Fam1B.1 aminoacylation ribozyme variant] . Output self-aminoacylation: 2.1

Input AUUACCCUUGUUAUCGAGUGA [Fam2.1 aminoacylation ribozyme variant] . Output self-aminoacylation: 6.96
